Values compiled from patent US20250353853A1.

Below, each entry is listed with its recorded IC50.
Biological target: UniProtKB P06935
Sequence (P06935 1502-1679 limits assumed): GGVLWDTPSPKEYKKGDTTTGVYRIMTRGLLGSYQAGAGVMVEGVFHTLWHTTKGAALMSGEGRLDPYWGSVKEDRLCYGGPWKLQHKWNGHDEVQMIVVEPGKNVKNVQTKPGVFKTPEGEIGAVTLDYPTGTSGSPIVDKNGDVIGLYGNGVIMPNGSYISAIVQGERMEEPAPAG
Sequence (P06935 1371-1501 partner limits assumed): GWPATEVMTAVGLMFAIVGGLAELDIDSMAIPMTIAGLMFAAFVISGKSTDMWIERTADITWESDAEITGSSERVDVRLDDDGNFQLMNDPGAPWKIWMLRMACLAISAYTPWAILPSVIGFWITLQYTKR
Experiment: WNV Protease Inhibition Assay
Type: biochemical
Excerpt: WNV Protease Inhibition Assay
test readout: IC50

[[record]]
compound = "Cc1noc(C)c1-c1ccc(C[n+]2cc([N-]C(=O)Nc3cccc(C4CC4)c3)on2)nc1"
measured = "0.1 to 1 µM"

[[record]]
compound = "Cn1cc(-c2cccc(C[n+]3cc([N-]C(=O)Nc4cccc(C(F)(F)F)c4)on3)c2)cn1"
measured = "0.1 to 1 µM"

[[record]]
compound = "O=C([N-]c1c[n+]([C@@H]2CCC[C@H]2c2ccccc2)no1)Nc1cccc(C(F)(F)F)c1"
measured = "1 to 20 µM"

[[record]]
compound = "Cc1cnccc1-c1ccc(C[n+]2cc([N-]C(=O)Nc3cccc(C(F)(F)F)c3)on2)nc1"
measured = "0.1 to 1 µM"

[[record]]
compound = "C[C@H](c1ccc(Br)cc1)[n+]1cc([N-]C(=O)Nc2cncc(C(F)(F)F)c2)on1"
measured = "1 to 20 µM"

[[record]]
compound = "Cc1ncnc(C)c1-c1ccc([C@H](C)[n+]2cc([N-]C(=O)Nc3ccnc(C(F)(F)F)c3)on2)cc1"
measured = "< 0.1 µM"

[[record]]
compound = "O=C([N-]c1c[n+](Cc2ccc(-c3ccncc3)cc2)no1)Nc1cncc(C(F)(F)F)c1"
measured = "0.1 to 1 µM"

[[record]]
compound = "O=C([N-]c1c[n+](Cc2ccc(-c3cnoc3)cc2)no1)Nc1cccc(C(F)(F)F)c1"
measured = "0.1 to 1 µM"

[[record]]
compound = "C[C@@H](c1ccc(Br)cc1)[n+]1cc([N-]C(=O)Nc2cccc(C(F)(F)F)c2)on1"
measured = "1 to 20 µM"

[[record]]
compound = "O=C([N-]c1c[n+](Cc2ccc(-c3ccnnc3)cn2)no1)Nc1cncc(C(F)(F)F)c1"
measured = "0.1 to 1 µM"

[[record]]
compound = "Cc1cc(NC(=O)[N-]c2c[n+](Cc3ccc(-c4c(C)noc4C)cn3)no2)cc(C(F)(F)F)c1"
measured = "1 to 20 µM"

[[record]]
compound = "COc1cc(-c2ccc(C[n+]3cc([N-]C(=O)Nc4cccc(C(F)(F)F)c4)on3)nc2)c(OC)nn1"
measured = "0.1 to 1 µM"

[[record]]
compound = "Cc1ccc(NC(=O)[N-]c2c[n+](Cc3ccc(-c4c(C)noc4C)cn3)no2)cc1C(F)(F)F"
measured = "0.1 to 1 µM"

[[record]]
compound = "Cc1n[nH]c(C)c1-c1ccc(C[n+]2cc([N-]C(=O)Nc3cccc(C(F)(F)F)c3)on2)nc1"
measured = "0.1 to 1 µM"

[[record]]
compound = "O=C([N-]c1c[n+](Cc2ccc(-c3cccnc3)cc2)no1)Nc1cccc(C(F)(F)F)c1"
measured = "0.1 to 1 µM"

[[record]]
compound = "COc1cc(-c2ccc(C[n+]3cc([N-]C(=O)Nc4cccc(C(F)(F)F)c4)on3)cc2)ccn1"
measured = "0.1 to 1 µM"

[[record]]
compound = "O=C([N-]c1c[n+](Cc2ccc(-c3c(F)cncc3F)cn2)no1)Nc1cccc(C(F)(F)F)c1"
measured = "0.1 to 1 µM"

[[record]]
compound = "Cc1cnn(C)c1-c1ccc(C[n+]2cc([N-]C(=O)Nc3cncc(C(F)(F)F)c3)on2)nc1"
measured = "0.1 to 1 µM"

[[record]]
compound = "O=C([N-]c1c[n+](Cc2cccc(-c3cncnc3)c2)no1)Nc1cccc(C(F)(F)F)c1"
measured = "0.1 to 1 µM"

[[record]]
compound = "C[C@H](c1ccc(-c2cncnc2)cc1)[n+]1cc([N-]C(=O)Nc2cccc(C(F)(F)F)c2)on1"
measured = "0.1 to 1 µM"

[[record]]
compound = "Cc1cnn(C)c1-c1ccc(C[n+]2cc([N-]C(=O)Nc3cccc(C(F)(F)F)c3)on2)nc1"
measured = "0.1 to 1 µM"

[[record]]
compound = "O=C([N-]c1c[n+](Cc2ccc(-c3cnccn3)cc2)no1)Nc1cccc(C(F)(F)F)c1"
measured = "0.1 to 1 µM"

[[record]]
compound = "Cc1noc(C)c1-c1ccc(C[n+]2cc([N-]C(=O)Nc3cccc(C(F)F)c3)on2)nc1"
measured = "0.1 to 1 µM"

[[record]]
compound = "O=C([N-]c1c[n+](Cc2ccc(I)cc2)no1)Nc1cccc(C(F)(F)F)c1"
measured = "0.1 to 1 µM"

[[record]]
compound = "O=C([N-]c1c[n+](C(c2ccccc2)C(F)(F)F)no1)Nc1cccc(C(F)(F)F)c1 (stereo not drawn)"
measured = "1 to 20 µM"

[[record]]
compound = "Cc1noc(C)c1-c1ccc(C[n+]2cc([N-]C(=O)Nc3cncc(C4CC4)c3)on2)nc1"
measured = "0.1 to 1 µM"

[[record]]
compound = "C[C@H](c1ccc(Br)cc1)[n+]1cc([N-]C(=O)Nc2cccc(C(F)(F)F)c2)on1"
measured = "1 to 20 µM"

[[record]]
compound = "Cc1ncnc(C)c1-c1ccc(C[n+]2cc([N-]C(=O)Nc3cncc(C(F)(F)F)c3)on2)nc1"
measured = "0.1 to 1 µM"

[[record]]
compound = "COc1ncnc(C)c1-c1ccc(C[n+]2cc([N-]C(=O)Nc3cncc(C(F)(F)F)c3)on2)nc1"
measured = "0.1 to 1 µM"

[[record]]
compound = "Cc1noc(C)c1-c1ccc(C[n+]2cc([N-]C(=O)Nc3cc(F)cc(C(F)(F)F)c3)on2)nc1"
measured = "0.1 to 1 µM"

